# tested.system: T1, glucose-dependent insulinotropic peptide (gastric inhibitory polypeptide) receptor (GIPR), primary cAMP assay … (human, UniProt P48546 22-466)
# T1 sequence (looked up): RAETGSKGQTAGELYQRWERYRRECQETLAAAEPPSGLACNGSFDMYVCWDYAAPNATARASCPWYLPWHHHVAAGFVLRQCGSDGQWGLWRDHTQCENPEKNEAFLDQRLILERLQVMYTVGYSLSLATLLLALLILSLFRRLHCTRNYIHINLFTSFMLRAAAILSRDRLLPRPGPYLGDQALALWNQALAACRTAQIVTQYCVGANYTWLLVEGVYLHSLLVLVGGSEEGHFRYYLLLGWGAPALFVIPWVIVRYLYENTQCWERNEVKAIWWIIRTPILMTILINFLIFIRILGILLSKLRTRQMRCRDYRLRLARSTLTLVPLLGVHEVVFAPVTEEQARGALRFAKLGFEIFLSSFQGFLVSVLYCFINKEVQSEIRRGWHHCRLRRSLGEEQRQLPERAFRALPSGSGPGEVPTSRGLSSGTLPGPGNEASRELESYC
# test.method.notes: cell-based or functional assay
Starred links: 1 amine or outer side, 2 acyl side, 3 side chain; linkers in the order of their positions; H or OH if unused. Non-standard residues stand in square brackets, D forms with d. Groups on a side chain read outwards from the residue. Primed or numbered codes have the meaning given here. No end group written: not given here. *: point of attachment. γGlu = O=C(O)[C@H](CCC(=O)[*:2])N[*:1]; αMeF = C[C@](N)(Cc1ccccc1)C(=O)O; αMeK = C[C@](N)(CCCCN)C(=O)O; Lauroyl = CCCCCCCCCCCC(=O)*; αMeS = C[C@](N)(CO)C(=O)O; PEG2′ = not defined here; Aib = CC(C)(N)C(=O)O
measured.attribute: cAMP Primary assay EC50, n2 (nM)

GET /value?item= H[Aib]EGS[αMeF]TSDV[αMeS]SK([PEG2′-PEG2′-γGlu-Lauroyl])LEGEAA[αMeK]K([PEG2′-PEG2′-γGlu-Lauroyl])FIAK([PEG2′-PEG2′-γGlu-Lauroyl])VVEGG-NH2 [SEQ ID NO: 466] &field=cAMP Primary assay EC50, n2 returns 20.2

Record H[Aib]EGS[αMeF]TSDVSK([PEG2′-PEG2′-γGlu-Lauroyl])YLEK([PEG2′-PEG2′-γGlu-Lauroyl])EAA[αMeK]EFIAK([PEG2′-PEG2′-γGlu-Lauroyl])VVEGG-NH2 [SEQ ID NO: 459] , field cAMP Primary assay EC50, n2: 19.7

The binder identified as H[Aib]EGS[αMeF]TSDK([PEG2′-PEG2′-γGlu-Lauroyl])SSYLEGEAA[αMeK]K([PEG2′-PEG2′-γGlu-Lauroyl])FIAK([PEG2′-PEG2′-γGlu-Lauroyl])VVEGG-NH2 [SEQ ID NO: 458] registered its cAMP Primary assay EC50, n2 at 20

Looking up H[Aib]EGS[αMeF]TSDV[αMeS]SYK([PEG2′-PEG2′-γGlu-Lauroyl])EK([PEG2′-PEG2′-γGlu-Lauroyl])EAA[αMeK]EFIK([PEG2′-PEG2′-γGlu-Lauroyl])FVVEGG-NH2 [SEQ ID NO: 451] , I see its cAMP Primary assay EC50, n2 listed as 19.5
